# assay: Stability in rat plasma assessed as half life by LCMS analysis
# Type: ADME, cell-free

{"compound": "COCCc1ccc(OP(=O)(CC/C=C(\\C)COC(C)=O)OCOC(=O)c2cn(-c3ccc(F)cc3F)nn2)cc1 (stereo unspecified)", "relationalOperator": "<", "t1/2 / min": 1}
{"compound": "C/C(=C\\CCP(=O)(OCOC(=O)c1cn(-c2ccc(C(C)C)cc2)nn1)Oc1ccc(C(C)C)cc1)CO (stereo unspecified)", "relationalOperator": "=", "t1/2 / min": 2.6}
{"compound": "CC(=O)OC/C(C)=C/CCP(=O)(OCOC(=O)c1cn(-c2ccc(C(C)C)cc2)nn1)Oc1ccc(C(C)C)cc1 (stereo unspecified)", "relationalOperator": "=", "t1/2 / min": 43}
{"compound": "C/C(=C\\CCP(=O)(OCOC(=O)c1cn(-c2ccccc2)nn1)Oc1ccccc1)CO (stereo unspecified)", "relationalOperator": "=", "t1/2 / min": 2.2}
{"compound": "CC(=O)OC/C(C)=C/CCP(=O)(OCOC(=O)c1cn(-c2ccccc2)nn1)Oc1ccc(C(C)C)cc1 (stereo unspecified)", "relationalOperator": "=", "t1/2 / min": 1.3}
{"compound": "C/C(=C\\CCP(=O)(OCOC(=O)c1cn(-c2ccccc2)nn1)Oc1ccc(C(C)C)cc1)CO (stereo unspecified)", "relationalOperator": "<", "t1/2 / min": 1}

---

# assay: Drug metabolism in human plasma assessed as aryl mono anion metabolite formation at 100 uM measured after 1 hr by LC-MS analysis
# Type: ADME, cell-free
# Design: unit not given here

{"molecule": "C/C(=C\\CCP(=O)(OCOC(=O)c1cn(-c2ccc(C(C)C)cc2)nn1)Oc1ccc(C(C)C)cc1)CO (stereo not drawn)", "Drug metabolism": 15000}
{"molecule": "CC(=O)OC/C(C)=C/CCP(=O)(OCOC(=O)c1cn(-c2ccc(C(C)C)cc2)nn1)Oc1ccc(C(C)C)cc1 (stereo not drawn)", "Drug metabolism": 69}
{"molecule": "C/C(=C\\CCP(=O)(OCOC(=O)c1cn(-c2ccc(F)cc2)nn1)Oc1ccc(C(C)C)cc1)CO (stereo not drawn)", "Drug metabolism": 11000}

---

# assay: Drug metabolism in human K562 cells assessed as aryl mono anion metabolite formation at 100 uM measured after 1 hr by LC-MS analysis
# Format: ADME, cell-based
# Design: unit not given here
# experimentalConditions: k562, 1 h
metric: Drug metabolism

{"compound": "C/C(=C\\CCP(=O)(OCOC(=O)c1cn(-c2ccc(F)cc2)nn1)Oc1ccccc1)CO (configuration not stated)", "result": 11000}
{"compound": "C/C(=C\\CCP(=O)(OCOC(=O)c1cn(-c2ccc(F)cc2)nn1)Oc1ccc(C(C)C)cc1)CO (configuration not stated)", "result": 22000}
{"compound": "C/C(=C\\CCP(=O)(OCOC(=O)c1cn(-c2ccc(C(C)C)cc2)nn1)Oc1ccccc1)CO (configuration not stated)", "result": 22000}
{"compound": "CC(=O)OC/C(C)=C/CCP(=O)(OCOC(=O)c1cn(-c2ccccc2)nn1)Oc1ccccc1 (configuration not stated)", "result": 7800}
{"compound": "CC(=O)OC/C(C)=C/CCP(=O)(OCOC(=O)c1cn(-c2ccc(C(C)C)cc2)nn1)Oc1ccc(C(C)C)cc1 (configuration not stated)", "result": 320}
{"compound": "CC(=O)OC/C(C)=C/CCP(=O)(OCOC(=O)c1cn(-c2ccc(F)cc2)nn1)Oc1ccccc1 (configuration not stated)", "result": 4700}
{"compound": "CC(=O)OC/C(C)=C/CCP(=O)(OCOC(=O)c1cn(-c2ccccc2)nn1)Oc1ccc(C(C)C)cc1 (configuration not stated)", "result": 800}
{"compound": "C/C(=C\\CCP(=O)(OCOC(=O)c1cn(-c2ccccc2)nn1)Oc1ccccc1)CO (configuration not stated)", "result": 10000}
{"compound": "CC(=O)OC/C(C)=C/CCP(=O)(OCOC(=O)c1cn(-c2ccc(F)cc2)nn1)Oc1ccc(C(C)C)cc1 (configuration not stated)", "result": 33000}
{"compound": "C/C(=C\\CCP(=O)(OCOC(=O)c1cn(-c2ccc(C(C)C)cc2)nn1)Oc1ccc(C(C)C)cc1)CO (configuration not stated)", "result": 21000}
{"compound": "C/C(=C\\CCP(=O)(OCOC(=O)c1cn(-c2ccccc2)nn1)Oc1ccc(C(C)C)cc1)CO (configuration not stated)", "result": 17000}
{"compound": "CC(=O)OC/C(C)=C/CCP(=O)(OCOC(=O)c1cn(-c2ccc(C(C)C)cc2)nn1)Oc1ccccc1 (configuration not stated)", "result": 7000}
